procedure summary: qHTS of pediatric cancer cell lines to identify multiple opportunities for drug repurposing: Primary screen for U-2 OS cells (AID 1347096); note: nearly all actives have a fitted effect of over 50% in size
run parameters: U-2 OS viability, CellTiter-Glo luminescence, 48 h; series mostly up to 46 µM
Results filed as inconclusive are left out. Active and inactive are the calls of the source. Calls come from the whole dose curve; as a rule, active = well fitted cell-killing curve with a large enough effect; inconclusive = small, poorly fitted or top-dose-only effect; inactive = flat fitted curve, though single readings scatter. Numbered stars: 1 amine (or outer) side, 2 acyl side, 3 side chain; on linkers, the order of the positions; unused ones are H or OH. Bridge positions count the residues as written; N and C are the ends. Square brackets hold non-standard residues; d marks the D form. Peptide text beside a SMILES is read from it. I, II: the chains in the order shown. Actinocin(9to1) = Cc1c2oc3c(C)ccc(C(=O)[*:1])c3nc-2c(C(=O)[*:2])c(N)c1=O; NMeV = CN[C@H](C(=O)O)C(C)C; Sar = CNCC(=O)O
Labels: active, inactive

# molecule, class label
rows = [
    ("C[C@H]1C[C@H]2[C@@H]3CCC4=CC(=O)C=C[C@]4(C)[C@@]3(Cl)[C@@H](O)C[C@]2(C)[C@@]1(O)C(=O)CO", "inactive"),
    ("CN(C/C=C/c1ccccc1)Cc1cccc2ccccc12", "inactive"),
    ("CCCOC(C(=O)OC1CCN(C)CC1)(c1ccccc1)c1ccccc1", "inactive"),
    ("CCOC(=O)[C@H](CCc1ccccc1)N[C@@H](C)C(=O)N1Cc2ccccc2C[C@H]1C(=O)O", "inactive"),
    ("Cc1ccccc1C(=O)Nc1ccc(C(=O)N2CCCC(N(C)C)c3ccccc32)cc1 (stereo not given)", "inactive"),
    ("CN1CCC[C@@H]1c1cccnc1", "inactive"),
    ("O=C1c2ccccc2C(=O)C1c1ccccc1", "inactive"),
    ("O=c1[nH]c(=O)n([C@H]2C[C@H](O)[C@@H](CO)O2)cc1C(F)(F)F", "inactive"),
    ("CC1(C)O[C@@H]2C[C@H]3[C@@H]4C[C@H](F)C5=CC(=O)CC[C@]5(C)[C@H]4[C@@H](O)C[C@]3(C)[C@]2(C(=O)CO)O1", "inactive"),
    ("COc1ccc(C2C(=O)c3ccccc3C2=O)cc1", "inactive"),
    ("CC(=O)OCC(=O)[C@@]1(O)[C@H](C)C[C@H]2[C@@H]3CCC4=CC(=O)C=C[C@]4(C)[C@@]3(F)[C@@H](O)C[C@@]21C", "inactive"),
    ("CC[C@@H](CO)NCCN[C@@H](CC)CO", "inactive"),
    ("CCCCc1nc(Cl)c(CO)n1Cc1ccc(-c2ccccc2-c2nn[nH]n2)cc1", "inactive"),
    ("NC(CO)(CO)CO", "inactive"),
    ("OC(CCN1CCCCC1)(c1ccccc1)c1ccccc1", "inactive"),
    ("CCCCOc1ccc(C(=O)CCN2CCCCC2)cc1", "inactive"),
    ("NC(CS)C(=O)O (stereo not given)", "inactive"),
    ("c1ccc(OCc2ccc(CCCN3CCOCC3)cc2)cc1", "inactive"),
    ("Cc1ccnc(NS(=O)(=O)c2ccc(N)cc2)n1", "inactive"),
    ("O=C(OCC(O)CO)c1ccccc1Nc1ccnc2cc(Cl)ccc12 (stereo not given)", "inactive"),
    ("CC(C)NC[C@@H](O)COc1cccc2ccccc12", "inactive"),
    ("CC[N+](CC)(CCNC(=O)C(=O)NCC[N+](CC)(CC)Cc1ccccc1Cl)Cc1ccccc1Cl", "inactive"),
    ("C[C@@H]1CN(CCCn2c3ccccc3c3ccccc32)C[C@H](C)N1", "inactive"),
    ("CCOC(=O)n1ccn(C)c1=S", "inactive"),
    ("C[C@H](O)C(=O)Nc1c(I)c(C(=O)NC(CO)CO)c(I)c(C(=O)NC(CO)CO)c1I", "inactive"),
    ("COCc1c(C(C)C)nc(C(C)C)c(/C=C/[C@@H](O)C[C@@H](O)CC(=O)O)c1-c1ccc(F)cc1", "active"),
    ("COC1=CC(=O)C[C@@H](C)[C@]12Oc1c(Cl)c(OC)cc(OC)c1C2=O", "inactive"),
    ("COC(=O)CCc1ccc(OCC(O)CNC(C)C)cc1 (stereo not given)", "inactive"),
    ("Cc1c2oc3c(C)ccc(C(=O)N[C@@H]4C(=O)N[C@H](C(C)C)C(=O)N5CCC[C@H]5C(=O)N(C)CC(=O)N(C)[C@@H](C(C)C)C(=O)O[C@@H]4C)c3nc-2c(C(=O)N[C@@H]2C(=O)N[C@H](C(C)C)C(=O)N3CCC[C@H]3C(=O)N(C)CC(=O)N(C)[C@@H](C(C)C)C(=O)O[C@@H]2C)c(N)c1=O (I: T[dV]P[Sar][NMeV] / II: T[dV]P[Sar][NMeV]; ester I:1-I:C, II:1-II:C; linker I:N-II:N via Actinocin(9to1))", "active"),
    ("Cc1ccc(Nc2c(F)cccc2Cl)c(CC(=O)O)c1", "inactive"),
]
